# Test system: SUM149PT spheroids with HUVEC/MSC, viability
# assay_details: Anticancer human tumor SUM149PT cell line growth inhibition [GQUAD];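 further: spheroids exposed to drugs for seven days before readout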;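 on viability, T/C: percent viability relative to DMSO vehicle control taken as 100%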
# cond: second compound 1 µM; first compound 0.0316 µM; stronger effect = lower value
Item-by-item account of viability, T/C
Provide the reading as a plain figure in %.

- compound: "CCCS(=O)(=O)Nc1ccc(F)c(C(=O)c2c[nH]c3ncc(-c4ccc(Cl)cc4)cc23)c1F + Cc1[nH]c2ccc(F)cc2c1-c1nc2c3cccnc3c3ncccc3c2[nH]1"
  measured_on: "SUM149PT spheroids with HUVEC/MSC, viability"
  reading: 103
- compound: "CC[C@@]1(O)C(=O)OCc2c1cc1n(c2=O)Cc2cc3c(CN(C)C)c(O)ccc3nc2-1 + Cc1cnc(CNC(=O)c2c(=O)c3ccc(N4CCCN(C)CC4)nc3n3c2sc2ccccc23)cn1"
  measured_on: "SUM149PT spheroids with HUVEC/MSC, viability"
  reading: 41.5
- compound: "CCc1c2c(nc3ccc(O)cc13)-c1cc3c(c(=O)n1C2)COC(=O)[C@]3(O)CC + Cc1cnc(CNC(=O)c2c(=O)c3ccc(N4CCCN(C)CC4)nc3n3c2sc2ccccc23)cn1"
  measured_on: "SUM149PT spheroids with HUVEC/MSC, viability"
  reading: 35.5
- compound: "C#Cc1c(F)ccc2cc(O)cc(-c3ncc4c(N5CC6CCC(C5)N6)nc(OCC56CCCN5CC(F)C6)nc4c3F)c12 (stereo unspecified) + CN(C)c1ccc(Nc2c3ccc(NC(=O)CCN4CCCC4)cc3nc3cc(NC(=O)CCN4CCCC4)ccc23)cc1"
  measured_on: "SUM149PT spheroids with HUVEC/MSC, viability"
  reading: 75.5
- compound: "Cc1[nH]c2ccccc2c1CCNCc1ccc(/C=C/C(=O)NO)cc1 + Cc1cnc(CNC(=O)c2c(=O)c3ccc(N4CCCN(C)CC4)nc3n3c2sc2ccccc23)cn1"
  measured_on: "SUM149PT spheroids with HUVEC/MSC, viability"
  reading: 47.7

Query: Requested read-out: viability, T/C. Entry: Nc1ccn(C2OC(CO)C(O)C2(F)F)c(=O)n1 (stereo unspecified) + Cc1cnc(CNC(=O)c2c(=O)c3ccc(N4CCCN(C)CC4)nc3n3c2sc2ccccc23)cn1
Response: 40.4

Query: Now consider CC(C)(O)C1CCC(Nc2ccc3ncc(-c4cccc(C(F)(F)F)c4)n3n2)CC1 (stereo unspecified) + Cc1cnc(CNC(=O)c2c(=O)c3ccc(N4CCCN(C)CC4)nc3n3c2sc2ccccc23)cn1 and answer again.
Response: 43.7

Query: Further, for C=CC(=O)N1CCN(c2nc(=O)n(-c3c(C)ccnc3C(C)C)c3nc(-c4c(O)cccc4F)c(F)cc23)C(C)C1 (stereo unspecified) + Cc1cnc(CNC(=O)c2c(=O)c3ccc(N4CCCN(C)CC4)nc3n3c2sc2ccccc23)cn1 ?
Response: 50

Query: Try C=CC(=O)N1CCN(c2nc(=O)n(-c3c(C)ccnc3C(C)C)c3nc(-c4c(O)cccc4F)c(F)cc23)C(C)C1 (stereo unspecified) + CN(C)c1ccc(Nc2c3ccc(NC(=O)CCN4CCCC4)cc3nc3cc(NC(=O)CCN4CCCC4)ccc23)cc1 next.
Response: 96.5

---

Entries annotated with measured viability, T/C
# System: SUM149PT spheroids with HUVEC/MSC, viability
# assay_details: Anticancer human tumor SUM149PT cell line growth inhibition [GQUAD];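 further: spheroids exposed to drugs for seven days before readout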;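 on viability, T/C: percent viability relative to DMSO vehicle control taken as 100%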
# cond: second compound 0.1 µM; first compound 0.0316 µM; stronger effect = lower value
// return numeric value only (unit: %, not printed)

# example entries with known answers
- molecule: "O=C(c1cc(Cc2n[nH]c(=O)c3ccccc23)ccc1F)N1CCN(C(=O)C2CC2)CC1 + Cc1cnc(CNC(=O)c2c(=O)c3ccc(N4CCCN(C)CC4)nc3n3c2sc2ccccc23)cn1"
  unit_tag: "%"
  reading: 63.6
- molecule: "CC(C)n1c(=O)n(C)c2cnc3cc(F)c(-c4ccc(OCCCN5CCCCC5)nc4)cc3c21 + Cc1[nH]c2ccc(F)cc2c1-c1nc2c3cccnc3c3ncccc3c2[nH]1"
  unit_tag: "%"
  reading: 97.8

Now let's try a different one.
Query: I have this molecule here, COc1ncnc(C2CC2)c1-c1ncc2cnn(Cc3ccc(-c4nc(C(F)(F)F)cn4C(C)C)cc3)c2n1 + CN(C)c1ccc(Nc2c3ccc(NC(=O)CCN4CCCC4)cc3nc3cc(NC(=O)CCN4CCCC4)ccc23)cc1 , and I need its recorded viability, T/C.
Response: 94.8

---

# Test system: SUM149PT spheroids with HUVEC/MSC, viability
# assay_details: Anticancer human tumor SUM149PT cell line growth inhibition [GQUAD];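 further: spheroids exposed to drugs for seven days before readout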;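 on viability, T/C: percent viability relative to DMSO vehicle control taken as 100%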
# cond: second compound 0.0316 µM; first compound 3.16 µM; stronger effect = lower value
So basically, if viability, T/C comes in under 90% it's Fulfilled, and if it's 90% or more it's Not fulfilled.

Query: Does Cc1cccc(N(C)C(=O)C2C(O)CCN2c2nc(C)cc(C(F)(F)F)c2C#N)c1 (centres undefined) + CN(C)c1ccc(Nc2c3ccc(NC(=O)CCN4CCCC4)cc3nc3cc(NC(=O)CCN4CCCC4)ccc23)cc1 have viability, T/C strictly under 90%?
Response: Not fulfilled

Query: Field entry: CC(C)n1c(=O)n(C)c2cnc3cc(F)c(-c4ccc(OCCCN5CCCCC5)nc4)cc3c21 + Cc1[nH]c2ccc(F)cc2c1-c1nc2c3cccnc3c3ncccc3c2[nH]1
Response: Not fulfilled

---

# System: SUM149PT spheroids with HUVEC/MSC, viability
# assay_details: Anticancer human tumor SUM149PT cell line growth inhibition [GQUAD];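 further: spheroids exposed to drugs for seven days before readout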
# cond: curve of first compound; second compound 1 µM
# Description: DNA G-quadruplex Stabilizer Agents in Combinations in Complex Spheroids A high-throughput screen of multi-cell type tumor spheroids was designed to identify active combinations of DNA G-quadruplex stabilizer agents and targeted small molecules. […] Compounds. […] If the clinical Cmax for an agent had not been determined, the highest concentration tested was 10 microM. […]
Listed below: IC50 values for each entry.
Use µM as the unit, but write only the number.

- compound: "CC1COCCN1c1cc(C2(O)CC3CCC(C2)O3)c2cnn(-c3ccn[nH]3)c2n1 (stereo not given) + Cc1[nH]c2ccc(F)cc2c1-c1nc2c3cccnc3c3ncccc3c2[nH]1"
  unit_tag: "µM"
  IC50: 0.076

Query: Look at this compound and give its reported IC50. C#Cc1c(F)ccc2cc(O)cc(-c3ncc4c(N5CC6CCC(C5)N6)nc(OCC56CCCN5CC(F)C6)nc4c3F)c12 (stereo not given) + Cc1[nH]c2ccc(F)cc2c1-c1nc2c3cccnc3c3ncccc3c2[nH]1
Response: 5.38

---

Listed below: viability, T/C values for each entry.
# Tested on: SUM149PT spheroids with HUVEC/MSC, viability
# assay_details: Anticancer human tumor SUM149PT cell line growth inhibition [GQUAD];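 further: spheroids exposed to drugs for seven days before readout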;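 on viability, T/C: percent viability relative to DMSO vehicle control taken as 100%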
# cond: second compound 1 µM; first compound 0.0316 µM; stronger effect = lower value

- molecule: "COc1cccc2c1C(=O)c1c(O)c3c(c(O)c1C2=O)CC(O)(C(=O)CO)CC3OC1CC(N)C(O)C(C)O1 (stereo not drawn) + Cc1[nH]c2ccc(F)cc2c1-c1nc2c3cccnc3c3ncccc3c2[nH]1"
  viability, T/C: "94.7%"
- molecule: "C#Cc1c(F)ccc2cc(O)cc(-c3ncc4c(N5CC6CCC(C5)N6)nc(OCC56CCCN5CC(F)C6)nc4c3F)c12 (stereo not drawn) + Cc1[nH]c2ccc(F)cc2c1-c1nc2c3cccnc3c3ncccc3c2[nH]1"
  viability, T/C: "95%"

Okay, now this molecule:
Query: // query viability, T/C value for entry Cn1ncnc1[C@H]1c2n[nH]c(=O)c3cc(F)cc(c23)N[C@@H]1c1ccc(F)cc1 + CN(C)c1ccc(Nc2c3ccc(NC(=O)CCN4CCCC4)cc3nc3cc(NC(=O)CCN4CCCC4)ccc23)cc1
Response: 81.5%

---

Measured IC50 by item
# System: SUM149PT spheroids with HUVEC/MSC, viability
# assay_details: Anticancer human tumor SUM149PT cell line growth inhibition [GQUAD];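 further: spheroids exposed to drugs for seven days before readout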
# cond: curve of first compound; second compound 0.316 µM

Example entries and their recorded answers appear below.
- compound: "C=CC(=O)N1CCN(c2nc(=O)n(-c3c(C)ccnc3C(C)C)c3nc(-c4c(O)cccc4F)c(F)cc23)C(C)C1 (stereo not given) + Cc1cnc(CNC(=O)c2c(=O)c3ccc(N4CCCN(C)CC4)nc3n3c2sc2ccccc23)cn1"
  IC50: "> 10 µM"
- compound: "CC(=O)O[C@H]1C(=O)[C@@]2(C)[C@H]([C@H](OC(=O)c3ccccc3)[C@]3(O)C[C@H](OC(=O)[C@H](O)[C@@H](NC(=O)c4ccccc4)c4ccccc4)C(C)=C1C3(C)C)[C@]1(OC(C)=O)CO[C@@H]1C[C@@H]2O + CN(C)c1ccc(Nc2c3ccc(NC(=O)CCN4CCCC4)cc3nc3cc(NC(=O)CCN4CCCC4)ccc23)cc1"
  IC50: "< 0.0316 µM"
- compound: "O=C(c1cc(Cc2n[nH]c(=O)c3ccccc23)ccc1F)N1CCN(C(=O)C2CC2)CC1 + Cc1[nH]c2ccc(F)cc2c1-c1nc2c3cccnc3c3ncccc3c2[nH]1"
  IC50: "> 10 µM"
- compound: "COc1ncnc(C2CC2)c1-c1ncc2cnn(Cc3ccc(-c4nc(C(F)(F)F)cn4C(C)C)cc3)c2n1 + CN(C)c1ccc(Nc2c3ccc(NC(=O)CCN4CCCC4)cc3nc3cc(NC(=O)CCN4CCCC4)ccc23)cc1"
  IC50: "> 10 µM"
- compound: "Cc1cccc(N(C)C(=O)C2C(O)CCN2c2nc(C)cc(C(F)(F)F)c2C#N)c1 (stereo not given) + CN(C)c1ccc(Nc2c3ccc(NC(=O)CCN4CCCC4)cc3nc3cc(NC(=O)CCN4CCCC4)ccc23)cc1"
  IC50: "> 10 µM"
- compound: "Cc1cccc(N(C)C(=O)C2C(O)CCN2c2nc(C)cc(C(F)(F)F)c2C#N)c1 (stereo not given) + Cc1[nH]c2ccc(F)cc2c1-c1nc2c3cccnc3c3ncccc3c2[nH]1"
  IC50: "> 10 µM"
- compound: "Cc1cccc(N(C)C(=O)C2C(O)CCN2c2nc(C)cc(C(F)(F)F)c2C#N)c1 (stereo not given) + Cc1cnc(CNC(=O)c2c(=O)c3ccc(N4CCCN(C)CC4)nc3n3c2sc2ccccc23)cn1"
  IC50: "> 10 µM"
- compound: "CC[C@@]1(O)C(=O)OCc2c1cc1n(c2=O)Cc2cc3c(CN(C)C)c(O)ccc3nc2-1 + CN(C)c1ccc(Nc2c3ccc(NC(=O)CCN4CCCC4)cc3nc3cc(NC(=O)CCN4CCCC4)ccc23)cc1"
  IC50: "> 0.316 µM"
- compound: "CCCS(=O)(=O)Nc1ccc(F)c(C(=O)c2c[nH]c3ncc(-c4ccc(Cl)cc4)cc23)c1F + Cc1[nH]c2ccc(F)cc2c1-c1nc2c3cccnc3c3ncccc3c2[nH]1"
  IC50: "> 10 µM"

Query: Field request: IC50 | item: CCc1c2c(nc3ccc(O)cc13)-c1cc3c(c(=O)n1C2)COC(=O)[C@]3(O)CC + Cc1cnc(CNC(=O)c2c(=O)c3ccc(N4CCCN(C)CC4)nc3n3c2sc2ccccc23)cn1
Response: < 0.000999 µM
